molecular target: panel of 203 kinases (Homo sapiens); construct: purchased DiscoverX (KINOMEscan); assay: KINOMEscan competitive binding, whole panel; settings: 10 µM, n=1; kinase MRCKA; read-out: Percent inhibition MRCKA
quantity name: inhibition at 10 µM (%)
Enter your answer as a number in %; do not include the unit.

Nc1ncc2c(-c3ccncc3)c[nH]c2n1 [Compound 11]	0
Cc1ccc(O)cc1Nc1ccnc(Nc2cccc(C(N)=O)c2)n1 [Compound 3]	0
Clc1ccc(Nc2ncc(-c3ccccc3)s2)cc1 [Compound 10]	0
c1ccc(COc2cccc(-c3ccnc4[nH]ccc34)c2)cc1 [Compound 9]	0

Here is the next item to consider.
According to the records, this molecule C[C@@H](Oc1cc(-c2cnc3ccccn23)sc1C(N)=O)c1ccccc1Cl [Compound 8] displays inhibition at 10 µM of 0

====

target: panel of 203 kinases (Homo sapiens); construct: purchased DiscoverX (KINOMEscan); assay: KINOMEscan competitive binding, whole panel; settings: 10 µM, n=1; kinase BMX; read-out: Percent inhibition BMX
quantity name: inhibition at 10 µM (%)
Dear colleague, please return just the value in %, with no unit written.

Study these solved cases before continuing.
Cc1ccc(O)cc1N(C)c1ccnc(Nc2cccc(S(N)(=O)=O)c2)n1	100
COc1cc(Nc2nccc(-c3sc(N)nc3-c3cccc(NC(=O)c4c(F)cccc4F)c3)n2)cc(OC)c1OC	100
C[C@@H](Oc1cc(-c2cnc3ccccn23)sc1C(N)=O)c1ccccc1Cl	0
Nc1ncc2c(-c3ccncc3)c[nH]c2n1	0
Fc1cccc(COc2ccc(Nc3ncnc4c3CN(CCN3CCOCC3)CC4)cc2Cl)c1	0

Looking up c1ccc(COc2cccc(-c3ccnc4[nH]ccc34)c2)cc1 , I found its inhibition at 10 µM recorded as 0

====

biological target: PTK6 (Homo sapiens); construct: purchased DiscoverX (KINOMEscan); assay: KINOMEscan competitive binding; details: n=1, read-out: Percent inhibition, PTK6
Sequence (Q13882 whole entry): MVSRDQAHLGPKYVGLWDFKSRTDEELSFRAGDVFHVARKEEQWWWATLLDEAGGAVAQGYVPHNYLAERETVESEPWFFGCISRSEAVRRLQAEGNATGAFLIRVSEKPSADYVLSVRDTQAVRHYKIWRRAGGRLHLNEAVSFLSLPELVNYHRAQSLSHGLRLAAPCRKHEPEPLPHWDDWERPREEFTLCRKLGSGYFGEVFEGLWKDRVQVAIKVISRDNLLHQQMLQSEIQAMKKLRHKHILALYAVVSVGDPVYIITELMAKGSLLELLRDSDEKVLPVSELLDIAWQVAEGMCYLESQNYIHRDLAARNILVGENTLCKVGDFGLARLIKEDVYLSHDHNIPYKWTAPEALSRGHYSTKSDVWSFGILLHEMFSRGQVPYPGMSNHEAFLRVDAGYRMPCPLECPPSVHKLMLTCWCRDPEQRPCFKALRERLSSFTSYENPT
Below, each entry is listed with its recorded inhibition at 10 µM.
Entry rule: numbers only, all in %.

Cc1ccc(O)cc1N(C)c1ccnc(Nc2cccc(S(N)(=O)=O)c2)n1	100
Nc1ncc2c(-c3ccncc3)c[nH]c2n1	0
c1ccc(COc2cccc(-c3ccnc4[nH]ccc34)c2)cc1	0
Fc1cccc(COc2ccc(Nc3ncnc4c3CN(CCN3CCOCC3)CC4)cc2Cl)c1	0
Clc1ccc(Nc2ncc(-c3ccccc3)s2)cc1	0

Short answer for C[C@@H](Oc1cc(-c2cnc3ccccn23)sc1C(N)=O)c1ccccc1Cl : inhibition at 10 µM was 0

Noted for COc1cc(Nc2nccc(-c3sc(N)nc3-c3cccc(NC(=O)c4c(F)cccc4F)c3)n2)cc(OC)c1OC : its inhibition at 10 µM reads 100

Briefly, inhibition at 10 µM measured for Cc1ccc(O)cc1Nc1ccnc(Nc2cccc(C(N)=O)c2)n1 : 100

Kindly note the recorded inhibition at 10 µM for CN1CCN(c2ccc(Nc3nccc(-c4cnn5ncccc45)n3)cc2C#N)CC1 , which is 77

Summary for this compound, COc1ccc(Nc2nccc(-c3cnn4ncccc34)n2)cc1 : inhibition at 10 µM is 0

====

molecular target: CLK1 (Homo sapiens, UniProt P49759); construct: purchased DiscoverX (KINOMEscan); experiment: KINOMEscan competitive binding; conditions: 10 µM, n=1; kinase CLK1; read-out: Percent inhibition CLK1
Sequence (P49759 whole entry): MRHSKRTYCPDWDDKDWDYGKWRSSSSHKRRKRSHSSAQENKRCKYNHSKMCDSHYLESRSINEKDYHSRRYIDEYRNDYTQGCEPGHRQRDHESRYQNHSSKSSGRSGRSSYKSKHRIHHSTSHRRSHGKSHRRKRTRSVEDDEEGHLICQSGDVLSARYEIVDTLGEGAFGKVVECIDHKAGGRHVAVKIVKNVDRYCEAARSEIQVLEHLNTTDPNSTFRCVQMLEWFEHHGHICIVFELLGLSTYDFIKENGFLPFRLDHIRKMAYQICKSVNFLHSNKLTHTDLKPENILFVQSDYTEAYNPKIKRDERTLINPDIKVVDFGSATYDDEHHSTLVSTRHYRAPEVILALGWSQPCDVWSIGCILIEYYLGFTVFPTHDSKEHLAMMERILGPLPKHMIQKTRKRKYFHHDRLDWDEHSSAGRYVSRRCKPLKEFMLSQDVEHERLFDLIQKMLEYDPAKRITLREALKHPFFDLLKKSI
quantity name: inhibition at 10 µM (%)
Answer format: numeric, % implied, no suffix.

Below are worked cases with known answers.
COc1ccc(Nc2nccc(-c3cnn4ncccc34)n2)cc1	99.8
CN1CCN(c2ccc(Nc3nccc(-c4cnn5ncccc45)n3)cc2C#N)CC1	99.9
COc1cc(Nc2nccc(-c3sc(N)nc3-c3cccc(NC(=O)c4c(F)cccc4F)c3)n2)cc(OC)c1OC	0
Clc1ccc(Nc2ncc(-c3ccccc3)s2)cc1	0
Cc1ccc(O)cc1N(C)c1ccnc(Nc2cccc(S(N)(=O)=O)c2)n1	0
Nc1ncc2c(-c3ccncc3)c[nH]c2n1	99.2
c1ccc(COc2cccc(-c3ccnc4[nH]ccc34)c2)cc1	0
C[C@@H](Oc1cc(-c2cnc3ccccn23)sc1C(N)=O)c1ccccc1Cl	92.7
Cc1ccc(O)cc1Nc1ccnc(Nc2cccc(C(N)=O)c2)n1	0

Below: the item to evaluate.
Quick note, inhibition at 10 µM for Fc1cccc(COc2ccc(Nc3ncnc4c3CN(CCN3CCOCC3)CC4)cc2Cl)c1 landed at 0

====

Molecular target: panel of 203 kinases (Homo sapiens)
Construct: purchased DiscoverX (KINOMEscan)
Sequence (P21709 26-976): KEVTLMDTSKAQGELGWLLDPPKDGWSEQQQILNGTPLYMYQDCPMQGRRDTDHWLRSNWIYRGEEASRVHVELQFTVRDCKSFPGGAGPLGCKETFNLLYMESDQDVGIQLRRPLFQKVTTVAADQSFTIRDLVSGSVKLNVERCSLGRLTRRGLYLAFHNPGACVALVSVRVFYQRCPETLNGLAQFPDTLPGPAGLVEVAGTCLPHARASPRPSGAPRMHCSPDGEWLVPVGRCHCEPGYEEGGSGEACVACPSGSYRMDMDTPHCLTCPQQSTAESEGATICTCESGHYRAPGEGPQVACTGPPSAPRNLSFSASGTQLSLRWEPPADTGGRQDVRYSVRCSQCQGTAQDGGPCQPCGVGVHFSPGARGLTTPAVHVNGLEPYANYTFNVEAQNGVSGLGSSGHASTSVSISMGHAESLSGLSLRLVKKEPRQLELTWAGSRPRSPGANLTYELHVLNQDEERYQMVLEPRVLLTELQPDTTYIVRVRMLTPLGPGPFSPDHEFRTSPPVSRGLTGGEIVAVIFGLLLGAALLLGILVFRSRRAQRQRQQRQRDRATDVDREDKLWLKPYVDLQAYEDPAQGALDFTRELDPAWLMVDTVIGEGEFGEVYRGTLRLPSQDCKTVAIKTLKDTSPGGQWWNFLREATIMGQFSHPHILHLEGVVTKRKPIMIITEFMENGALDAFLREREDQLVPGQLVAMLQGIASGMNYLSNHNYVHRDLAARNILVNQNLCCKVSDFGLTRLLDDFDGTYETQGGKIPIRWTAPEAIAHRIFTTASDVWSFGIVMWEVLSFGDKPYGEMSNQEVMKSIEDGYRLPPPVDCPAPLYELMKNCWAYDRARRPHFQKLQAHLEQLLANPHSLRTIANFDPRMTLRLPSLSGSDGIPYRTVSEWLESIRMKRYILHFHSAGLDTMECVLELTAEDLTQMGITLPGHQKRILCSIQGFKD
Assay: KINOMEscan competitive binding, whole panel
Settings: 10 µM, n=1; kinase EPHA1; read-out: Percent inhibition EPHA1
quantity name: inhibition at 10 µM

Clc1ccc(Nc2ncc(-c3ccccc3)s2)cc1	0%
CN1CCN(c2ccc(Nc3nccc(-c4cnn5ncccc45)n3)cc2C#N)CC1	94.3%
COc1cc(Nc2nccc(-c3sc(N)nc3-c3cccc(NC(=O)c4c(F)cccc4F)c3)n2)cc(OC)c1OC	100%
Nc1ncc2c(-c3ccncc3)c[nH]c2n1	0%
Cc1ccc(O)cc1Nc1ccnc(Nc2cccc(C(N)=O)c2)n1	100%
Fc1cccc(COc2ccc(Nc3ncnc4c3CN(CCN3CCOCC3)CC4)cc2Cl)c1	0%
c1ccc(COc2cccc(-c3ccnc4[nH]ccc34)c2)cc1	0%
COc1ccc(Nc2nccc(-c3cnn4ncccc34)n2)cc1	92.5%
Cc1ccc(O)cc1N(C)c1ccnc(Nc2cccc(S(N)(=O)=O)c2)n1	100%

inhibition at 10 µM reported for this compound C[C@@H](Oc1cc(-c2cnc3ccccn23)sc1C(N)=O)c1ccccc1Cl : 0%

====

Each entry below carries its recorded inhibition at 10 µM.
biological target: YES (Homo sapiens); construct: purchased DiscoverX (KINOMEscan); test: KINOMEscan competitive binding; conditions: n=1, read-out: Percent inhibition, YES
Sequence (P07947 whole entry): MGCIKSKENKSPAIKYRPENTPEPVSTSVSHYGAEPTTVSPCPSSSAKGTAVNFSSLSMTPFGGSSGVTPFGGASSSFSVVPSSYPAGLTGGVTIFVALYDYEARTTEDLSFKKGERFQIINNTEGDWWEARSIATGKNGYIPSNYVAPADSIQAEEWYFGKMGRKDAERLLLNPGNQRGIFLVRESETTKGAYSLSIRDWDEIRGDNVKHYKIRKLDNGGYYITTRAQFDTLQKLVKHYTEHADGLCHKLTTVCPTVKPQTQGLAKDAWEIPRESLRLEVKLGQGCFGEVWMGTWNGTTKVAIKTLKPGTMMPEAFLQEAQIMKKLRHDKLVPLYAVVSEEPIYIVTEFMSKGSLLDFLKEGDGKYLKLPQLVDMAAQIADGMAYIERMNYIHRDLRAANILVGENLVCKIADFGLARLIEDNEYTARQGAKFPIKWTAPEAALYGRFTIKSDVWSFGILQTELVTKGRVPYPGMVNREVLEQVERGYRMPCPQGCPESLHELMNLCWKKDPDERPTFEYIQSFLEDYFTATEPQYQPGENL
Give a bare numeral; the unit % is implied.

Study these solved cases before continuing.
C[C@@H](Oc1cc(-c2cnc3ccccn23)sc1C(N)=O)c1ccccc1Cl	0
Cc1ccc(O)cc1Nc1ccnc(Nc2cccc(C(N)=O)c2)n1	100
CN1CCN(c2ccc(Nc3nccc(-c4cnn5ncccc45)n3)cc2C#N)CC1	92.8
Fc1cccc(COc2ccc(Nc3ncnc4c3CN(CCN3CCOCC3)CC4)cc2Cl)c1	0
Cc1ccc(O)cc1N(C)c1ccnc(Nc2cccc(S(N)(=O)=O)c2)n1	100
COc1cc(Nc2nccc(-c3sc(N)nc3-c3cccc(NC(=O)c4c(F)cccc4F)c3)n2)cc(OC)c1OC	100
Nc1ncc2c(-c3ccncc3)c[nH]c2n1	66.2
COc1ccc(Nc2nccc(-c3cnn4ncccc34)n2)cc1	0
Clc1ccc(Nc2ncc(-c3ccccc3)s2)cc1	0

The record that follows has no inhibition at 10 µM shown yet.
The recorded inhibition at 10 µM for c1ccc(COc2cccc(-c3ccnc4[nH]ccc34)c2)cc1 is 0

====

Recorded inhibition at 10 µM by entry
biological target: panel of 203 kinases (Homo sapiens, UniProt Q13557); construct: purchased DiscoverX (KINOMEscan); experiment: KINOMEscan competitive binding, whole panel; conditions: 10 µM, n=1; kinase CAMK2D; read-out: Percent inhibition CAMK2D
Sequence (Q13557 whole entry): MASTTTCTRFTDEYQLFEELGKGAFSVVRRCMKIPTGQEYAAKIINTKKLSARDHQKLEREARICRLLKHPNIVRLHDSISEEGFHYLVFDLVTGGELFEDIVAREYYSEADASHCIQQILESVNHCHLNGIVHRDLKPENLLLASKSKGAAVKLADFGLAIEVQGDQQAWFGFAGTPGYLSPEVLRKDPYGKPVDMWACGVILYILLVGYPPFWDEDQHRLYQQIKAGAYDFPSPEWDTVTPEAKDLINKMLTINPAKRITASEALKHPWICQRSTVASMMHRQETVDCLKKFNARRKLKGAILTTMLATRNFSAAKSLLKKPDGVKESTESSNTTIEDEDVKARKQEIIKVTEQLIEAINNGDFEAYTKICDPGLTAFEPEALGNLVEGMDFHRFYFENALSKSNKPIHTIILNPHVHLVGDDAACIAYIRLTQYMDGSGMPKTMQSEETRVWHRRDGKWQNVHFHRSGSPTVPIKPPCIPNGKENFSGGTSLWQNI
// note: answer is a bare numeric in %

Nc1ncc2c(-c3ccncc3)c[nH]c2n1 [Compound 11]	0
Clc1ccc(Nc2ncc(-c3ccccc3)s2)cc1 [Compound 10]	0
Cc1ccc(O)cc1Nc1ccnc(Nc2cccc(C(N)=O)c2)n1 [Compound 3]	0
COc1ccc(Nc2nccc(-c3cnn4ncccc34)n2)cc1 [Compound 2]	79.5
CN1CCN(c2ccc(Nc3nccc(-c4cnn5ncccc45)n3)cc2C#N)CC1 [Compound 1]	96.5

Could you now consider this next molecule?
For record Fc1cccc(COc2ccc(Nc3ncnc4c3CN(CCN3CCOCC3)CC4)cc2Cl)c1 [Compound 6] the listed inhibition at 10 µM is 0
